growth inhibition overview
Test: NCI Yeast Anticancer Drug Screen. Data for the bub3 strain (AID 167)
Conditions: S. cerevisiae bub3 mutant strain, at 5.0 µM (retest, dose inferred, filed as 0.5), stronger effect = higher value
About 79,000 compounds went through this panel and 15% of them were active in at least one assay; those are over-represented in the sample as a whole.
Respond with the bare value in %.

Solved cases below.
CC/C(=C(\CC)c1ccc(O)c(CN(CC)CC)c1)c1ccc(OC)cc1; 0
C=C1C(=O)OC2C(C)C3C=CC(=O)[C@@]3(C)C(OC(=O)/C(C)=C/C)C1[C@@H]2OC(C)=O (stereo partly specified); 4
CC1(C)CC(=N/O)/C(=N/O)C(=N\NC(N)=S)/C1; -1
CN(NC(=O)/C(=C/c1cc(Cl)cc(Cl)c1O)NC(=O)c1ccccc1)c1cnn(-c2ccccc2)c(=O)c1Cl; -13

Given the compound CCN(CC)CC(O)c1ccc2cc(Cl)c3ccccc3c2c1 (stereo unspecified) , what is its reported growth inhibition?
16

Given the compound CCCCCCCCCCCC(=O)OCC1CO1 (stereo unspecified) , what is its reported growth inhibition?
9

Given the compound C=CC(=C)OC , what is its reported growth inhibition?
2

Given the compound Cc1ccc(S(=O)(=O)Nc2ccccc2C=O)cc1 , what is its reported growth inhibition?
4

Given the compound O=C(CCCl)Nc1ccc(CCC(=O)c2ccccc2NC(=O)CCCl)cc1 , what is its reported growth inhibition?
-8

Given the compound Nc1nc(SCc2ccccc2)c2ncn(CCCl)c2n1 , what is its reported growth inhibition?
-2

Given the compound C/C(=N/O)c1ccc2c(c1)C(=NO)c1cc(/C(C)=N/O)ccc1-2 , what is its reported growth inhibition?
21

====

Test: NCI Yeast Anticancer Drug Screen. Data for the sgs1 mgt1 strain (AID 161);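 also: 0% = growth of cultures given vehicle only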
Settings: S. cerevisiae sgs1 mgt1 strain, at 50.0 µM
Compounds without any hit were thinned out: in the full panel of roughly 79,000, 15% have a hit. Calls of active or inactive are those of the source. No stated cut-off is given here; in the data, active means growth inhibition above about 70%; inactive means the rest.
Pick one: 1.0 for active, 0.0 for inactive

// known answers, use as guide
O=C(/C=C/c1cccnc1)c1cc(Cl)ccc1O; 0.0
CN(C)C(=S)/N=c1\ssc(=S)n1-c1ccccc1; 0.0
O=C(O)c1ccccc1-c1c2cc(I)c(=O)c(I)c-2oc2c(I)c(O)c(I)cc12; 1.0
O=c1cc(N=Nc2ccc(Cl)c(Cl)c2)[nH]c(=O)[nH]1; 1.0
NCCc1ccc2oc3cc(=O)c4ccccc4c-3nc2c1; 0.0

// return assay outcome for C1CNC(CCNCCSCCNCCC2=NCCN2)=N1
1.0

====

growth inhibition overview
Assay: NCI Yeast Anticancer Drug Screen. Data for the cln2 rad14 strain (AID 165);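 also: 0% = growth equal to vehicle treated cultures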
Settings: S. cerevisiae cln2 rad14 strain, at 5.0 µM (retest, dose inferred, filed as 0.5), stronger effect = higher value
The panel holds about 79,000 compounds, 15% with a hit somewhere; the sample as a whole holds those more often.
Respond with the bare value in %.

Solved cases below.
CCCNC(=O)N(CC(C)(C)C)S(=O)(=O)c1ccc(Cl)cc1; -4
O=c1oc(-c2ccc(Cl)c([N+](=O)[O-])c2)ns1; 4
O=[N+]([O-])c1ccc(/C=N/O)o1; 49

Given the molecule CN(C)CCC(=O)c1ccco1 , what is its reported growth inhibition?
10

Given the molecule CN(C)C1=C(Cl)C(=O)c2ccccc2C1=O , what is its reported growth inhibition?
11

Given the molecule CC(=O)Oc1ccc(-c2ccccc2)cc1Br , what is its reported growth inhibition?
7

Given the molecule Cc1ccccc1N=NC(C(=O)c1ccccc1)C(=O)c1ccccc1 , what is its reported growth inhibition?
3

====

Test: NCI Yeast Anticancer Drug Screen. Data for the cln2 rad14 strain (AID 165);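 also: 0% = growth equal to vehicle treated cultures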
Conditions: S. cerevisiae cln2 rad14 strain, at 50.0 µM, stronger effect = higher value
About 79,000 compounds went through this panel and 15% of them were active in at least one assay; those are over-represented in the sample as a whole.
Class y: growth inhibition at least 60%. Class n: growth inhibition below 60%.

// known answers, use as guide
CC(C)N(C(=O)CC1(O)CCCCC1)C(C)C; y
C=C1OC(=O)C(=O)N1CC(=O)O; n
COc1ccc(N=Nc2ccc3oc(=O)c(C(=O)Nc4ccccc4C)cc3c2)cc1; y
CCOC(=O)C(C=O)(C=O)c1ccccc1; n
Cc1ccc(OC/C=C/c2ccc(Cl)cc2)cc1; y

Quick check: does COC(=O)C1=C(C(=O)OC)C2C(C)=CC(C)=CN2C(C(=O)OC)=C1C(=O)OC (stereo not drawn) have growth inhibition greater than or equal to 60%?
y

Quick check: does CC(=O)OCC1CC2OC2CC1C (stereo not drawn) have growth inhibition greater than or equal to 60%?
y

Quick check: does COC(O)C(=O)c1ccc2c(c1)CC1(C2)Cc2cc3c(cc2C1=O)CCC3 (stereo not drawn) have growth inhibition greater than or equal to 60%?
n

Quick check: does CCN(CC)CCCCCCNc1cc(Cl)cc2cccnc12 have growth inhibition greater than or equal to 60%?
y

====

Assay: NCI Yeast Anticancer Drug Screen. Data for the mlh1 rad18 strain (AID 175)
Settings: S. cerevisiae mlh1 rad18 strain growth inhibition; at 50.0 µM
About 79,000 compounds went through this panel and 15% of them were active in at least one assay; those are over-represented in the sample as a whole. Calls of active or inactive are those of the source. Rule as the data show it: active = growth inhibition above about 70%; inactive = the rest.
Pick one: Yes (active), No (inactive)

// return assay outcome for CCC(=O)Oc1ccc(-c2ccccc2)cc1Cl
Yes

// return assay outcome for CCCCCCCCCCCCCCCC1(OC)C[N+](C)(C)CCO1 (stereo unspecified)
Yes

// return assay outcome for Nc1ccc(SC23CC4CC(CC(C4)C2)C3)cc1
Yes

====

Assay: NCI Yeast Anticancer Drug Screen. Data for the cln2 rad14 strain (AID 165);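 also: 0% = growth equal to vehicle treated cultures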
Details: S. cerevisiae cln2 rad14 strain, at 50.0 µM (retest, dose inferred, filed as 5.0), stronger effect = higher value
This is part of a sample that, as a whole, favours compounds with a hit. Of some 79,000 tested, about 15% had one in any assay.
Class class 1: growth inhibition at least 20%. Class class 0: growth inhibition below 20%.

CC(/C=C/NNC1=NC(c2ccccc2)C(c2ccccc2)=NN1)Sc1ccccc1N (configuration not stated); class 0

Quick check: does CCOC(=O)c1c(O)c(C)c(=O)n2c1[nH]c1cc(C)c(C)cc12 have growth inhibition greater than or equal to 20%?
class 0

Quick check: does CC(Cc1ccccc1)N1C(=O)C=CC1=O (configuration not stated) have growth inhibition greater than or equal to 20%?
class 1

Quick check: does CC(C)(C)N1C(=O)C(Cl)(C#N)C1c1ccccc1 (configuration not stated) have growth inhibition greater than or equal to 20%?
class 0

====

Assay: NCI Yeast Anticancer Drug Screen. Data for the mec2-1 strain (AID 157)
Settings: S. cerevisiae mec2-1 strain, at 5.0 µM (retest, dose inferred, filed as 0.5), stronger effect = higher value
Compounds without any hit were thinned out: in the full panel of roughly 79,000, 15% have a hit. The source made the active and inactive calls. Cut-off read from the data, not from the text of the source: active = growth inhibition above about 70%; inactive = the rest.
RECORDED_ENDPOINT: growth inhibition

Given the molecule Nc1ncnc2c1ncn2C1OCC(O)C1O (stereo unspecified) , what is its reported growth inhibition?
33% (inactive)

Given the molecule O=[N+]([O-])c1cc(C(F)(F)F)ccc1SSc1ccc(C(F)(F)F)cc1[N+](=O)[O-] , what is its reported growth inhibition?
39% (inactive)

Given the molecule O=C(CC1(O)C(=O)Nc2c(Cl)cccc21)c1ccc(Cl)cc1 (stereo unspecified) , what is its reported growth inhibition?
8% (inactive)

Given the molecule Oc1cc2c(cc1C(c1ccc(Cl)cc1)N1CCOCC1)OCO2 (stereo unspecified) , what is its reported growth inhibition?
-1% (inactive)

Given the molecule CNC(=O)c1cc(NC(=O)c2ccc(C(=O)Nc3cc(C(=O)NC)cc(C4=NCCN4)c3)cc2)cc(C2=NCCN2)c1 , what is its reported growth inhibition?
11% (inactive)

Given the molecule CCO/C=C1N=C(/C=C/c2ccccc2Cl)OC/1=O , what is its reported growth inhibition?
13% (inactive)

====

Test: NCI Yeast Anticancer Drug Screen. Data for the cln2 rad14 strain (AID 165);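 also: 0% = growth equal to vehicle treated cultures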
Conditions: S. cerevisiae cln2 rad14 strain, at 5.0 µM (retest, dose inferred, filed as 0.5)
Compounds without any hit were thinned out: in the full panel of roughly 79,000, 15% have a hit. Activity calls are given as the source filed them. Cut-off read from the data, not from the text of the source: active = growth inhibition above about 70%; inactive = the rest.
Pick one: 1 for active, -1 for inactive

// return assay outcome for Cc1cccc(/C=N/Nc2cc(C)nc3ccccc23)n1
-1

// return assay outcome for OCC(O)Cc1c(Cl)c(Cl)c(Oc2c(Cl)c(Cl)c(CC(O)CO)c(Cl)c2Cl)c(Cl)c1Cl (configuration not stated)
-1

// return assay outcome for Cc1cc(N(CCC#N)CCC#N)ccc1/C(Sc1ccccc1)=C(\NC(=O)/C=C/c1ccccc1)C(=O)Sc1ccccc1
-1

====

Test: NCI Yeast Anticancer Drug Screen. Data for the mec2-1 strain (AID 157)
Conditions: S. cerevisiae mec2-1 strain, at 5.0 µM (retest, dose inferred, filed as 0.5)
Compounds without any hit were thinned out: in the full panel of roughly 79,000, 15% have a hit. Calls of active or inactive are those of the source. Cut-off read from the data, not from the text of the source: active = growth inhibition above about 70%; inactive = the rest.
Pick one: active, inactive

O=C(CC(C(=O)O)c1c[nH]c2ccccc12)c1ccccc1 (stereo unspecified); inactive
Cc1cc(S(=O)(=O)Nc2n[nH]c(-c3ccccn3)n2)c(S)cc1Cl; inactive
COc1ccc(-c2ccccc2)cc1SCCC(=O)O; inactive
CC(C)c1cc(=O)c2cc3[nH]c4ccccc4c3cc2[nH]1; inactive
NC(N)=N/N=C(\c1ccc(F)cc1)c1ccc(C(F)(F)F)cc1; inactive

Would you kindly look at the next entry?
// return assay outcome for CCCCCCSC(=Cc1cccc[n+]1C)SCCCCCC
active
